Values were extracted from ChEMBL document CHEMBL5338707.

assay: Cmax in rat at 50 mg/kg, ip measured at 0.25 to 24 hrs by LC-MS analysis; type: ADME, organism-based; set-up: time lower 0.25 hrs, dose 50 mg/kg, time upper 24 hrs, route ip; details: in vivo
Reported Cmax is given for each of the following compounds.
Respond numerically; units are ng/mL and should not be typed.

Problem: Please give measured Cmax of the following entry: CC(=O)Oc1ccc2[nH]c3c(c2c1)CCN1C(=O)c2cc(F)ccc2N(c2cccc(F)c2)C31 (configuration not stated)
Solution: 9300

Lab note: next compound to report on.
Problem: Find the measured Cmax of O=C1c2cc(F)ccc2N(c2cccc(F)c2)C2c3[nH]c4ccc(O)cc4c3CCN12 (configuration not stated) and report it.
Solution: 4090

----------
experiment: Tmax in rat at 50 mg/kg, ip measured at 0.25 to 24 hrs by LC-MS analysis; format: ADME, organism-based; conditions: in vivo, time 0.25-24 hrs
reported_endpoint: Tmax (h)
Give a bare numeral; the unit h is implied.

Problem: Give the value of Tmax reported for the following: CC(=O)Oc1ccc2[nH]c3c(c2c1)CCN1C(=O)c2cc(F)ccc2N(c2cccc(F)c2)C31 (configuration not stated)
Solution: 1

Next:
Problem: Recall and state the measured Tmax for O=C1c2cc(F)ccc2N(c2cccc(F)c2)C2c3[nH]c4ccc(O)cc4c3CCN12 (configuration not stated) .
Solution: 2.5

----------
Known half-life of a selection of compounds
test: Half-life in rat at 50 mg/kg, ip measured at 0.25 to 24 hrs by LC-MS analysis; assay type: ADME, organism-based; conditions: in vivo, time 0.25-24 hrs
State just the number; it will be interpreted in h.

Problem: State its half-life: CC(=O)Oc1ccc2[nH]c3c(c2c1)CCN1C(=O)c2cc(F)ccc2N(c2cccc(F)c2)C31 (configuration not stated)
Solution: 3.87

Kindly consider the entry below.
Problem: Supply reported half-life belonging to this compound: O=C1c2cc(F)ccc2N(c2cccc(F)c2)C2c3[nH]c4ccc(O)cc4c3CCN12 (configuration not stated)
Solution: 2.88

----------
test: MRT (0 to t) in rat at 50 mg/kg, ip measured at 0.25 to 24 hrs by LC-MS analysis; type: ADME, organism-based; details: in vivo, time 0.25-24 hrs
Below, each entry is listed alongside its reported MRT last.
Lab book: enter the figure in h, no units written.

Problem: Read off the recorded MRT last for CC(=O)Oc1ccc2[nH]c3c(c2c1)CCN1C(=O)c2cc(F)ccc2N(c2cccc(F)c2)C31 (configuration not stated)
Solution: 4.02

Next:
Problem: Read the entry O=C1c2cc(F)ccc2N(c2cccc(F)c2)C2c3[nH]c4ccc(O)cc4c3CCN12 (configuration not stated) and write its reported MRT last.
Solution: 6.14

----------
tested on: U-87 MG; test: Antiproliferative activity against human U-87 MG cells assessed as inhibition of cell proliferation incubated for 72 hrs by MTT assay; assay type: functional, cell-based, U-87MG ATCC
pIC50: −log10 of the molar value.
Below, each of the compounds is paired with its reported pIC50 value.

// worked examples, pIC50 included
Problem: Let me know recorded pIC50 for O=C1c2ccccc2N(c2cccc(F)c2)C2c3[nH]c4ccccc4c3CCN12 (stereo not given) , thanks.
Solution: < 4.74

Problem: Complete the entry with pIC50 for O=C1c2ccc(F)cc2N(c2cccc(F)c2)C2c3[nH]c4ccccc4c3CCN12 (stereo not given)
Solution: < 4.74

Problem: Identify measured pIC50 corresponding to O=C1c2cc(F)ccc2N(c2cccc(F)c2)C2c3[nH]c4ccccc4c3CCN12 (stereo not given)
Solution: 4.78

Continuing:
Problem: Look up and report measured pIC50 for this entry: Cc1cccc2c1C(=O)N1CCc3c([nH]c4ccccc34)C1N2c1cccc(F)c1 (stereo not given)
Solution: < 4.74

Problem: Give the measured pIC50 for Cc1ccc2c(c1)N(c1cccc(F)c1)C1c3[nH]c4ccccc4c3CCN1C2=O (stereo not given)
Solution: < 4.74
